Source: ChEMBL document CHEMBL4428088

Experiment: Oral bioavailability in rat at 10 mg/kg
Format: ADME, organism-based
Conditions: in vivo
quantity measured: bioavailability
Number first, unit second.

input: Recorded bioavailability for CC(C)Cc1cc(CNC(=O)C2C3CN(C(=O)c4ccccc4)CC32)nn1-c1ccccc1 (stereo unspecified) , please?
output: 7.6%

----------
Assay: Cmax in rat at 10 mg/kg, po
Assay type: ADME, organism-based
Parameters: dose 10 mg/kg, route oral
Details: in vivo
quantity measured: Cmax
Number first, unit second.

input: Recorded Cmax for CC(C)Cc1cc(CNC(=O)C2C3CN(C(=O)c4ccccc4)CC32)nn1-c1ccccc1 (stereo unspecified) , please?
output: 280 ng/mL
